# System: P. falciparum 3D7 trophozoites
# test method notes: Metabolomic fingerprint profiling LC-MS
# Type: cell-based, Plasmodium falciparum
# condition info: metabolite sn-glycerol-3-phosphate, S2 Table Metabolomics
endpoint name: sn-glycerol-3-phosphate

compound: Cc1ccc(Nc2nc(-c3ccccn3)cs2)cc1 [MMV007907]
sn-glycerol-3-phosphate: 0.2394
//
compound: COc1ccc(-n2ccnc2SCC(=O)Nc2cc(C)ccc2C)c(OC)c1 [MMV019258]
sn-glycerol-3-phosphate: 0.01743
//
compound: C[n+]1c2ccccc2nc2ccc(NCCO)cc21 [MMV396693]
sn-glycerol-3-phosphate: 0.3061
//
compound: CCCc1c(CC)c(=N)c2ccccc2n1C [MMV008416]
sn-glycerol-3-phosphate: 0.06223
//
compound: COc1cccc(NC(=O)[C@H](C(C)C)n2c(=O)[nH]c3ccccc3c2=O)c1 [MMV665878]
sn-glycerol-3-phosphate: 0.02823
//
compound: OC(CNC1CCCCC1)Cn1c2ccccc2c2ccccc21 (stereo not shown) [MMV009063]
sn-glycerol-3-phosphate: 0.5324

Give sn-glycerol-3-phosphate for each listed item.
1. O=C(CSc1nccn2nc(-c3ccccc3)cc12)Nc1cc(C(F)(F)F)ccc1Cl [MMV396678]
2. CCCCCCOC(=O)C1=C(C)NC(=O)NC1c1ccccc1F (stereo not shown) [MMV007686]
3. O=C(NCC(c1ccsc1)N1CCCCCC1)c1ccc(C(F)(F)F)cc1 (stereo not shown) [MMV396672]
4. COc1ccccc1CNC(=O)CCn1c(=O)[nH]c2ccsc2c1=O [MMV019066]

[A]
1: -0.3771; 2: 0.5669; 3: -0.07409; 4: -0.1485
